system: PfHDP1 homeodomain (GST-tagged); experiment: gcPBM binding intensity (ln(normalized median fluorescence intensity)); higher = stronger DNA binding
Over roughly 25,000 sequences, “ln(normalized median fluorescence intensity)” has its median near 6.7; the highest 2% begin near 10. This is one part of a sample in which the highest values are shown more often than they occur.
Listing of entries alongside the reported gcPBM binding intensity (ln).
Note: the reply should be a number with no unit written.

Chain Sequence	gcPBM binding intensity (ln)
TATTTTATATTTTATGCACACTTATAAGAAATATGT [CACACA_site5647]	9.42

INPUT: For the sequence shown here, CATTTATATAAAGAATGTACACACAGAAATGCACAC [XGTACX_site4718] , give the reported gcPBM binding intensity (ln).
OUTPUT: 9.03

INPUT: For the sequence shown here, GATGTTCATCACTACACACACAAAGAAATATAAATA [CACACA_site7294] , give the reported gcPBM binding intensity (ln).
OUTPUT: 6.57

----------
system: PfHDP1 homeodomain (GST-tagged); assay: gcPBM binding intensity (ln(normalized median fluorescence intensity)); higher = stronger DNA binding
The full ranking holds about 25,000 sequences; the median of “ln(normalized median fluorescence intensity)” is about 6.7, and the highest 2% start at about 10. Shown is part of a subset that was picked to be rich in the highest values.
# gcPBM binding intensity (ln) >= 7 gives true, anything below gives false

Chain Sequence	Assigned Category
TTTTTTTTTTTTTTGTGTACTAATATTATAAATTTT [XGTACX_site4405]	false
TATACATATATAAATGCATGTTGATATTAATAGTTA [TGCATGCA_site639]	false
CATGTGCATATTAAATGTACATATATACATATATAC [XGTACX_site857]	true

INPUT: Kindly determine if gcPBM binding intensity (ln) recorded for ATTTTTGTAATTATTTGTACACATTTATTTATGTGT [XGTACX_site1864] is above or exactly 7.
OUTPUT: false

INPUT: Kindly determine if gcPBM binding intensity (ln) recorded for TTATATTAATTTTGTTGTACTATTTGTGCATTAAAT [XGTACX_site4790] is above or exactly 7.
OUTPUT: true

----------
test system: PfHDP1 homeodomain (GST-tagged); test: gcPBM binding intensity (ln(normalized median fluorescence intensity)); higher = stronger DNA binding
The full ranking holds about 25,000 sequences; the median of “ln(normalized median fluorescence intensity)” is about 6.7, and the highest 2% start at about 10. Many of the other results were omitted from the sample, so the highest values are more common in it than they were.
Listing of entries alongside the reported gcPBM binding intensity (ln).
Note: the reply should be a number with no unit written.

The cases that follow already have their gcPBM binding intensity (ln) on record.
Chain Sequence	Readout Value
ATGATATATTTAATAGTGCACTAATTAAAATTATTA [GTGCAC_site9418]	10.8
CATATACAGAAACACACACACACATAAATAAATATA [CACACA_site1343]	6.84
ATATATCATATTATAGTGCATTTATAATAATATTAT	8.51

INPUT: For the sequence shown here, TTACAATAAATTATAGTGCAATATTTTATTTAATAT , give the reported gcPBM binding intensity (ln).
OUTPUT: 10.6

INPUT: For the sequence shown here, CTTAAAATATATTTAGTGCATATACTAATATATTAT , give the reported gcPBM binding intensity (ln).
OUTPUT: 8.9

INPUT: For the sequence shown here, CATATATACAGTAACACACACAAAAAAATATGAATA [CACACA_site3996] , give the reported gcPBM binding intensity (ln).
OUTPUT: 6.91

INPUT: For the sequence shown here, ATATATATATTTATAGTGCATTTATATTAAAATATC [GTGCAC_site9818] , give the reported gcPBM binding intensity (ln).
OUTPUT: 8.5

INPUT: For the sequence shown here, ATTTTCTTTTCCATAGTGCAATATAATTATCCATCA [GTGCAC_site9547] , give the reported gcPBM binding intensity (ln).
OUTPUT: 10.9

INPUT: For the sequence shown here, AAATAATATGTAATCAAATTCACCAAACGAAAAAAA [TGCATGCA_negctrl_site33] , give the reported gcPBM binding intensity (ln).
OUTPUT: 6.59

INPUT: For the sequence shown here, TATTTATTGTGACACTTTTATTATTTTATGATAAAA [CACACA_negctrl_site37] , give the reported gcPBM binding intensity (ln).
OUTPUT: 6.6

----------
system: PfHDP1 homeodomain (GST-tagged); test: gcPBM binding intensity (ln(normalized median fluorescence intensity)); higher = stronger DNA binding
In all, about 25,000 sequences were measured (“ln(normalized median fluorescence intensity)”: median about 6.7, highest 2% from about 10 on). This excerpt belongs to a sample that is enriched for the highest values.
# gcPBM binding intensity (ln) >= 7 gives 1.0, anything below gives 0.0

Record excerpt, results attached:
Chain Sequence	Assigned Category
TCATTAATCAGGTATGCATGCATAACTATTAAAAAT [TGCATGCA_site90]	0.0
CCAATACTGTTTAAATGTACAAGTAGGAGGTTAATT [XGTACX_site7260]	0.0
TCAAGTATTAAAATGGGTACATAAATATGTGTATAT [XGTACX_site5884]	0.0
TATTTTATCATTTGCACACGCACACCCACATAAAAA [CACACA_site354]	1.0
TTTTATCACATTATTGCACACACATAAAGAAAAAAA [CACACA_site8922]	1.0
ATATATATATTTATATTTATATGTAAATATCAACGT [TGCATGCA_negctrl_site32]	1.0
AAGAGAAAAATATGGTTGCACTAAAAATATATATTT	1.0
TATTATTGTCTTTCAAAAAAAAAAAAAAAAAAAAAA [CACACA_negctrl_site1242]	0.0

INPUT: Kindly determine if gcPBM binding intensity (ln) recorded for AAAAAACTATTATGTGCATGCACAAGTCAGGTAAAT [TGCATGCA_site791] is above or exactly 7.
OUTPUT: 1.0

----------
tested on: PfHDP1 homeodomain (GST-tagged); experiment: gcPBM binding intensity (ln(normalized median fluorescence intensity)); higher = stronger DNA binding
Over roughly 25,000 sequences, “ln(normalized median fluorescence intensity)” has its median near 6.7; the highest 2% begin near 10. Only a selection was taken, and the highest values are over-represented in it overall.
# gcPBM binding intensity (ln) >= 7 gives condition met, anything below gives condition not met

Record excerpt, results attached:
Chain Sequence	Target	Assigned Category
ATATATCTATAAAAGGCTTCCCACTTTTTTTGTCAA [TGCATGCA_negctrl_site332]	PfHDP1 homeodomain (GST-tagged)	condition not met
AAATATTACATACACGCACACATTAATATATTTAAA [CACACA_site2603]	PfHDP1 homeodomain (GST-tagged)	condition met
TTTATATATAAATATATATATATATATATATATATA [TGCATGCA_negctrl_site121]	PfHDP1 homeodomain (GST-tagged)	condition met

INPUT: Kindly determine if gcPBM binding intensity (ln) recorded for TATATATATATGTGCACACCAATTGTATGTAATATA [CACACA_site3889] is above or exactly 7.
OUTPUT: condition met

INPUT: Kindly determine if gcPBM binding intensity (ln) recorded for TCCTTAAAATATATCACACATTTCGTTCATTTATAA [CACACA_site4346] is above or exactly 7.
OUTPUT: condition not met

----------
system: PfHDP1 homeodomain (GST-tagged); assay: gcPBM binding intensity (ln(normalized median fluorescence intensity)); higher = stronger DNA binding
In all, about 25,000 sequences were measured (“ln(normalized median fluorescence intensity)”: median about 6.7, highest 2% from about 10 on). What follows is part of a selection rich in the highest values, with near analogues and random picks from the rest.
Quantity: gcPBM binding intensity (ln)
Note: the reply should be a number with no unit written.

Chain Sequence	Readout Value
TTCTGTATATAGTGTGCACACAATTAAAAAAAAAAA [CACACA_site8400]	10.8

INPUT: For the sequence shown here, TAAAATATATTTTTCTGTACACAAAAATATATTAAA [XGTACX_site2813] , give the reported gcPBM binding intensity (ln).
OUTPUT: 6.24

INPUT: For the sequence shown here, TTTTTTGTTAAGTTGGTGCAAACAATAGTTATTGAC , give the reported gcPBM binding intensity (ln).
OUTPUT: 10.7

----------
system: PfHDP1 homeodomain (GST-tagged); assay: gcPBM binding intensity (ln(normalized median fluorescence intensity)); higher = stronger DNA binding
The full ranking holds about 25,000 sequences; the median of “ln(normalized median fluorescence intensity)” is about 6.7, and the highest 2% start at about 10. The sample holds the highest values, similar sequences and a random draw of the others, so the mix is not that of the screen.
Quantity: gcPBM binding intensity (ln)
Note: the reply should be a number with no unit written.

Chain Sequence	Readout Value
GTTTATGTATTATTATGTACGTATCATAATATATAT [XGTACX_site2385]	6.87
ATATCTTATAATACGGTGCACTTGACATGAACAACT [GTGCAC_site9987]	10.3
TAGATAAAATGAACATGTACTCATCTTAATATATAT [XGTACX_site34]	6.23
TATATATATATATATTGTACTAATTGTGCAAATGAG [XGTACX_site682]	10.9
GTAAATATGTTTATTAGTACACATATGAAAATAAAT [XGTACX_site5820]	6.42
TGTTTGCTTATGTGTTAAATATATATATATATATAT [TGCATGCA_negctrl_site218]	9.25
ATTTTACATATTTGCACACATATATTTATATACATA [CACACA_site854]	10.6
ATATAATATTTATATGCACACTTTTCTATATATAAG [CACACA_site6100]	8.84

INPUT: Give PfHDP1 homeodomain (GST-tagged) gcPBM binding intensity (ln) for ATAACTAAATGATATTGTACAAAATAATTATATATT [XGTACX_site1331]
OUTPUT: 6.38

INPUT: Give PfHDP1 homeodomain (GST-tagged) gcPBM binding intensity (ln) for ATATTAAGTTTTATTACACACTCTCAATTTTTATTT [CACACA_site4206]
OUTPUT: 6.63

INPUT: Give PfHDP1 homeodomain (GST-tagged) gcPBM binding intensity (ln) for AAATAATTATTTATCACACATATGTATTTATATATA [CACACA_site4589]
OUTPUT: 6.66

INPUT: Give PfHDP1 homeodomain (GST-tagged) gcPBM binding intensity (ln) for TAATATTCAATTATACGTACACATATATATATATAT [XGTACX_site4245]
OUTPUT: 9.22

INPUT: Give PfHDP1 homeodomain (GST-tagged) gcPBM binding intensity (ln) for AAATGTGAAAAAGAGTGTACCCGACTTGAAATTAAG [XGTACX_site8621]
OUTPUT: 6.92

INPUT: Give PfHDP1 homeodomain (GST-tagged) gcPBM binding intensity (ln) for TATGTCAATTTTCATACATGCGCATAATCTTTATTT [TGCATGCA_site807]
OUTPUT: 7.53

INPUT: Give PfHDP1 homeodomain (GST-tagged) gcPBM binding intensity (ln) for TATATAGATATGATAGTGCATTTTTAGAAAACATAA [GTGCAC_site9962]
OUTPUT: 7.95

INPUT: Give PfHDP1 homeodomain (GST-tagged) gcPBM binding intensity (ln) for TTTCAATGTGACACGTGTCCGTAAAATTACATAATT [XGTACX_site7073]
OUTPUT: 6.61

INPUT: Give PfHDP1 homeodomain (GST-tagged) gcPBM binding intensity (ln) for ATGACTCTCAAGTTTGCACACATTTATATTTTTTAA [CACACA_site2605]
OUTPUT: 10.5
